meta.source: the supplement of paper PMC10567573

# protocol: protein stability index of a GFP-peptide fusion (GPS, HEK-293T) (PSI 1-6); higher = more stable;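 note: 24-mer peptide tiles fused after GFP, lentivirally expressed, FACS-sorted into six equal bins by GFP/DsRed ratio, decoded by Illumina sequencing, PSI is the read-weighted mean bin number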
# measurementSetup: treatment: DMSO; c terminus: a fixed tail appended
The threshold is inclusive: protein stability index of exactly 3 counts as MET; values below receive NOT MET.

Incoming: Does the sequence VARCEVMAAMFNGNYMEAKSVLIP [RHOBTB3] have recorded protein stability index that is 3 or more?
Outgoing: NOT MET

Incoming: Quick check, protein stability index >= 3? PEVVQHEEFILLSQGEVEKLIKCD [KLHL12]
Outgoing: MET

Incoming: Decide: protein stability index of RLLLAGAEVQAKLENAEVLELTVR [HES6] >= 3?
Outgoing: NOT MET

Incoming: Does protein stability index meet or surpass 3 for PRIWSLAHTATASAVEGAPPARPR [IRX6] ?
Outgoing: MET

Incoming: Is it the case that SGHALRILIVDWDVHHGNGTQHMF [HDAC6] has protein stability index reaching or exceeding 3?
Outgoing: NOT MET

Incoming: Identify whether the reported protein stability index of the following sequence is 3 or greater: GCIAAENCIGIRDFALHYCLHHVH [GAN]
Outgoing: NOT MET

Incoming: State whether the measured protein stability index reaches 3, counting equality as reaching it, for GELVLATAISSFTRHVFTCGRRGI [TLE6]
Outgoing: NOT MET

Incoming: Test whether the sequence DQTSLLVVDKETDNMYRLAHFSPF [PDZK1] records protein stability index of 3 or higher.
Outgoing: NOT MET

Incoming: Is the recorded value of protein stability index equal to or greater than 3 for this sequence? RRVPPRFSIPPTNHEIMPGGSVNI [PTPRD]
Outgoing: MET

Incoming: Decide: is the reported value of protein stability index for ESDSCVSFEAPLTPLIQQRARDSP [PSD2] equal to or greater than 3?
Outgoing: MET

Incoming: Decide: is the reported value of protein stability index for DEPCAISGKWTFQRDSKRWSRLEE [DLC1] equal to or greater than 3?
Outgoing: MET

Incoming: Dear colleague, could you confirm whether GLSPSIDTLDHIRALDRLQEVPHE [PPP2CA] has protein stability index at or above 3?
Outgoing: MET

Incoming: Check the entry KEKANSLKNEIQEVEELDNWQPAV [SPATS1] : does protein stability index equal or exceed 3?
Outgoing: MET

* * *

# protocol: protein stability index of a GFP-peptide fusion (GPS, HEK-293T) (PSI 1-6); higher = more stable
# measurementSetup: treatment: MLN4924 1 uM, 8 h; c terminus: a fixed tail appended
Assignment: determine reported protein stability index for the given sequences.
The answer should be written as a number, with no unit following it.

Incoming: Record request: protein stability index value, item IEVFRRKRKMHLVFEYCDHTLLNE [CDKL4]
Outgoing: 2.33

Incoming: Requested read-out: protein stability index. Entry: LQSELAGVADFSATYLRCQLLLIK [INTS4]
Outgoing: 2.57

Incoming: Entry LRWERAWFPPAIMGVVSLVFLIIY [ARL6IP1] has what protein stability index?
Outgoing: 3.08

Incoming: Would you mind telling me what protein stability index value was observed for NLGDALDSSNSMQTIQKTTTRRIV [KRT18] ?
Outgoing: 4.51

Incoming: Reported protein stability index, sequence VYRAELVGELNGYLRDSSPAPCAD [PWWP2B] : ____
Outgoing: 3.52

Incoming: Form field: reported protein stability index of ATFNCLNKRLAKYRMRNVHPKPKL [CLCN6]
Outgoing: 2.8

Incoming: Query (sequence): STLPSLREEEEQVRAHAPRGNAPP [KCNG1] ; field requested: protein stability index
Outgoing: 4.91

Incoming: Requested read-out: protein stability index. Entry: HHLDEDEERERIERVRRIHIKRPD [KCTD10]
Outgoing: 5.19

Incoming: What value of protein stability index has been recorded for this entry: ESRKSKRRNSEFEIFVDCDINREQ [TPH1]
Outgoing: 4.92

Incoming: Need protein stability index, item ATAASSSASSPASVGDPCGGAICG [SLC25A25]
Outgoing: 4.85

Incoming: Need protein stability index of MLRWLIGGGREPQGLAEKSPLQTI [WDR41] , thanks.
Outgoing: 2.33

Incoming: Which protein stability index is reported for this sequence? VLLGEPLVVMAPSPSESSETVLAL [DENND6A]
Outgoing: 2.52

Incoming: Look at this sequence and give its reported protein stability index. KEAFDTIQEQKVVLEENGEKNQVQ [SASS6]
Outgoing: 5.71

Incoming: Dear colleague, I am looking for the recorded protein stability index of the following sequence: SIYLVGGYSWSMGAYKSSTICYCP [KLHL14]
Outgoing: 2.53

Incoming: Fill blank: measured protein stability index of the sequence QTLQAMDSEDFPQAAKQIKDGVTM [FSD1] is ____.
Outgoing: 5.04

Incoming: So what does the record say about protein stability index for IHFTLIQAFCCENDINILRVSNPG [GADD45A] ?
Outgoing: 2.71

Incoming: I would be grateful if you could share the reported protein stability index for FRLTTLLMSGCSSELKNRMEYALN [PLK2] .
Outgoing: 2.35

Incoming: Consider the sequence shown here: IRINPQSWFDNGSICMRMEILGCP [CPXM2] What is its recorded protein stability index?
Outgoing: 2.68

Incoming: I'd like to know its protein stability index. The sequence in question is GDSHYEIEIVHISTVQILTEGFPP [ZFYVE21]
Outgoing: 2.85

Incoming: Which protein stability index is listed for FDEPFLTRNVQSVSIIDTELKVKD [TRIP13] ?
Outgoing: 4.49

Incoming: Sample ETSRSHDLEAVVPQNGSETGWARK [ATP23] — what was its protein stability index?
Outgoing: 5.21

Incoming: What protein stability index value was documented for this sequence, HTPSDTGVSFQAISSMADFWDFAQ [PKD2L1] ?
Outgoing: 3.01

Incoming: Need protein stability index of TEATISIREDEVHRLGSPYGHCTA [SCNN1D] , thanks.
Outgoing: 3.88

Incoming: Which protein stability index value belongs to NSKPCISLNGPLSTSRHVMAPVMA [ADAMTS4] ?
Outgoing: 3.12

Incoming: Can you look up the measured protein stability index of LKNEIQEVEELDNWQPAVPLMHML [SPATS1] for me?
Outgoing: 3.18

Incoming: Data request, read-out protein stability index, for MQIEFIKQGSMNFRFIPVLFPNAK [TRAF3IP2]
Outgoing: 2.45
